Entry source: patent US20240116985A1

Overview of reported pIC50 across a group of compounds:
Molecular target: full-length beta-Catenin (Uniprot ID P35222) (Homo sapiens, UniProt P35222)
Construct: 10 nM full-length beta-Catenin (Uniprot ID P35222)
Sequence (P35222 whole entry): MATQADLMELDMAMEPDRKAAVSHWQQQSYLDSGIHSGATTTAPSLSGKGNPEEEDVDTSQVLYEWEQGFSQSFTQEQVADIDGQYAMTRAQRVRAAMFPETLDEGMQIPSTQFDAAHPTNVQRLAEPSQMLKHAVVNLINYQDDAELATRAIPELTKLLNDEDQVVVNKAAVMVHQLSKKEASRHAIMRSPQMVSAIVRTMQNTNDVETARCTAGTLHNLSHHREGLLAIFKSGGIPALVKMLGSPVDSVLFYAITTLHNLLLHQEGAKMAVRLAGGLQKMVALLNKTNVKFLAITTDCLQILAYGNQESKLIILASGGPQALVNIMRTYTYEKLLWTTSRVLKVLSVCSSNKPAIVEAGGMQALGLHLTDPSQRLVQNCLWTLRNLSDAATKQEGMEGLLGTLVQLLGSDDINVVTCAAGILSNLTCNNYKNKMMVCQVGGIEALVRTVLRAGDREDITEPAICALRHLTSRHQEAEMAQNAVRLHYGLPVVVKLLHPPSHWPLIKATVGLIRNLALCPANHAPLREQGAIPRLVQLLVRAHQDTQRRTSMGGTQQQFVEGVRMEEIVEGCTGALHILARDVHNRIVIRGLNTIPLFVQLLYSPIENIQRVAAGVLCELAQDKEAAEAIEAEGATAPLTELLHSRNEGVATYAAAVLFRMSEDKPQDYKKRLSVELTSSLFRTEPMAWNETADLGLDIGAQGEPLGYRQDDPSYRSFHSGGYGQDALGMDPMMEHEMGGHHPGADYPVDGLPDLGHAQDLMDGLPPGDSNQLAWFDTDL
Experiment: Fluorescence polarization IC50 (beta-catenin / 5FAM-TCF4 10-53 competition)
Type: binding
Conditions: fluorescence polarization; read-out: beta-Catenin FP IC50
pIC50: −log10 of the molar value.

Compound	pIC50
CC(=O)N1CCC[C@]12CCCCCCC1(CCCCCCCCOC(=O)N3CC[C@@](C(=O)N[C@@H](CC4CCCC4)C(=O)N[C@@H](Cc4csc5ccccc45)C(=O)N[C@@H](CCC(N)=O)C(N)=O)(C3)NC(=O)[C@H](CC(C)C)NC(=O)[C@H](Cc3ccccc3)NC(=O)[C@H](C)NC(=O)[C@H](C)NC(=O)[C@H](CN(CC(=O)O)CC(F)(F)F)NC(=O)[C@H](CC(=O)O)NC1=O)NC(=O)[C@H](CC(C)(C)C)NC(=O)[C@H](CC(=O)O)NC2=O (stereo partly drawn) [I-1713]	6.30
CC(=O)N1CCC[C@]12CC=CCCCC1(CCCC=CCCCOC(=O)N3CC[C@@](C(=O)N[C@@H](Cc4ccccc4C(F)(F)F)C(=O)N[C@@H](Cc4csc5ccccc45)C(=O)N[C@@H](C)C(N)=O)(C3)NC(=O)[C@H](CC(C)C)NC(=O)[C@H](Cc3ccccc3)NC(=O)[C@H](C)NC(=O)[C@H](CC(N)=O)NC(=O)[C@H](Cc3cccc(C(=O)O)c3)NC(=O)[C@H](CC(=O)O)NC1=O)NC(=O)[C@H](CC(C)(C)C)NC(=O)[C@H](CC(=O)O)NC2=O (stereo partly drawn) [I-2058]	8.00
CC(=O)N1CCC[C@]12CC=CCCCC1(CCCC=CCCCOC(=O)N3CC[C@@](C(=O)N[C@@H](Cc4ccccc4)C(=O)N[C@@H](Cc4csc5ccccc45)C(=O)N[C@@H](CCO)C(N)=O)(C3)NC(=O)[C@H](CC(N)=O)NC(=O)[C@H](Cc3cccc(C(N)=O)c3)NC(=O)[C@H](C)NC(=O)[C@H](CCCCNC(C)C)NC(=O)[C@H](CCC(N)=O)NC(=O)[C@H](CC(=O)O)NC1=O)NC(=O)[C@H](CC1CCCCC1)NC(=O)[C@H](CC(N)=O)NC2=O (stereo partly drawn) [I-1925]	6.32

----------
Target: full-length beta-Catenin (Uniprot ID P35222) (Homo sapiens, UniProt P35222)
Construct: 10 nM full-length beta-Catenin (Uniprot ID P35222)
Experiment: Fluorescence polarization IC50 (beta-catenin / 5FAM-TCF4 10-53 competition)
Format: binding
Conditions: fluorescence polarization; read-out: beta-Catenin FP IC50
Measured Parameter: IC50 (nM)

Molecule	System Name	Result Value
CC(=O)N1CCC[C@]12CC=CCCCC1(CCCC=CCCCOC(=O)N3CC[C@@](C(=O)N[C@@H](Cc4ccsc4)C(=O)N[C@@H](Cc4csc5ccccc45)C(=O)N[C@@H](CCC(N)=O)C(N)=O)(C3)NC(=O)[C@H](CCO)NC(=O)[C@H](Cc3cccc(C(=O)O)c3)NC(=O)[C@H](C)NC(=O)[C@H](C)NC(=O)[C@H](CCc3ccc(O)cc3)NC(=O)[C@H](CC(=O)O)NC1=O)NC(=O)[C@H](CC(C)(C)C)NC(=O)[C@H](CC(=O)O)NC2=O (stereo partly drawn) [I-2116]	full-length beta-Catenin (Uniprot ID P35222) (Homo sapiens, UniProt P35222)	19
CC(=O)N1CCC[C@]12CC=CCCCC1(CCCC=CCCCOC(=O)N3CC[C@@](C(=O)N[C@@H](Cc4ccsc4)C(=O)N[C@@H](Cc4csc5ccccc45)C(=O)N[C@@H](CCC(N)=O)C(N)=O)(C3)NC(=O)[C@H](CC(N)=O)NC(=O)[C@H](Cc3ccccc3)NC(=O)[C@H](C)NC(=O)[C@H](C)NC(=O)[C@H]([C@@H](C)O)NC(=O)[C@H](CC(N)=O)NC1=O)NC(=O)[C@H](CC1CCCCC1)NC(=O)[C@H](CC(=O)O)NC2=O (stereo partly drawn) [I-1884]	full-length beta-Catenin (Uniprot ID P35222) (Homo sapiens, UniProt P35222)	249
CC(=O)N1CCC[C@]12CC=CCCCC1(CCCC=CCCCOC(=O)N3CC[C@@](C(=O)N[C@@H](Cc4ccccc4)C(=O)N[C@@H](Cc4csc5ccccc45)C(=O)N[C@@H](CCCCNC(C)C)C(N)=O)(C3)NC(=O)[C@H](CCCCNC(C)C)NC(=O)[C@H](Cc3ccccc3)NC(=O)[C@H](C)NC(=O)[C@H](CCCCNC(C)C)NC(=O)[C@H](CCC(N)=O)NC(=O)[C@H](CC(=O)O)NC1=O)NC(=O)[C@H](CC(C)(C)C)NC(=O)[C@H](CC(N)=O)NC2=O (stereo partly drawn) [I-1654]	full-length beta-Catenin (Uniprot ID P35222) (Homo sapiens, UniProt P35222)	2130
